melting point listing for selected molecules.
Structures can show the parent of a compound that is named as a salt.

Query :: Reported melting point, molecule Cc1ccccc1CN1CCc2ccc(C(=O)CCCC3CCN(Cc4cccc(C(=N)N)c4)CC3)cc2CC1 [Example 260] : ____
Result :: 150 to 152 °C

Query :: Reported melting point, molecule CC(=O)N1CCC(CCCC(=O)c2ccc3c(c2)CCN(Cc2ccccc2C)CC3)CC1 [Example 125] : ____
Result :: 94 to 95 °C

Query :: Reported melting point, molecule O=C(CCC1CCN(Cc2ccc(-c3ccccc3)cc2)CC1)c1ccc2c(c1)CCN(Cc1ccc(F)cc1)CC2 (as salt: hydrochloride) [Example 49, Dihydrochloride] : ____
Result :: 225 to 228 °C (dec.)

Query :: Reported melting point, molecule O=C(O)c1cccc(CN2CCC(CCCC(=O)c3ccc4c(c3)CCN(Cc3ccccc3)CC4)CC2)c1 (as salt: salt) [Example 158] : ____
Result :: 150 to 158 °C

Query :: Reported melting point, molecule CCOC(=O)COc1ccc(CN2CCC(CCC(=O)c3ccc4c(c3)CCN(Cc3ccc(F)cc3)CC4)CC2)cc1 (as salt: hydrochloride) [Example 45, Dihydrochloride] : ____
Result :: 206 to 208 °C

* * *

Where a name gives a salt, the structure may show the parent alone.
quantity-name: melting point

Query :: Reported melting point, molecule O=C(CCCC1CCN(Cc2cccc([N+](=O)[O-])c2)CC1)c1ccc2c(c1)CCN(Cc1ccccc1)CC2 (as salt: hydrochloride) [Example 154, Dihydrochloride] : ____
Result :: 239 to 244 °C (dec.)

Query :: Reported melting point, molecule O=C(O)c1ccc(CN2CCC(CCCC(=O)c3ccc4c(c3)CCN(Cc3ccccc3)CC4)CC2)cc1 [Example 183] : ____
Result :: 165 to 176 °C

Query :: Reported melting point, molecule O=C(CCCC1CCN(Cc2ccccc2Cl)CC1)c1ccc2c(c1)CCN(Cc1ccc(F)cc1F)CC2 (as salt: hydrochloride) : ____
Result :: 193 to 196 °C

* * *

Counter-ions that a name gives are not always drawn.
quantity-name: melting point

compound	melting point
O=C(CCC1CCN(Cc2ccncc2)CC1)c1ccc2c(c1)CN(Cc1ccccc1)CCO2 (as salt: hydrochloride)	243 to 245 °C
Cc1ccccc1CN1CCC(CCCC(=O)c2ccc3c(c2)CCN(Cc2ccc(F)cc2F)CC3)CC1 (as salt: hydrochloride)	208 to 210 °C
Cc1ccc(CN2CCC(CCCC(=O)c3ccc4c(c3)CCN(Cc3ccc(Cl)cc3)CC4)CC2)cc1 (as salt: hydrochloride)	230 to 234 °C

Query :: Reported melting point, compound O=C(CCC1CCN(Cc2cc(C(F)(F)F)cc(C(F)(F)F)c2)CC1)c1ccc2c(c1)CN(Cc1ccccc1)CCO2 (as salt: hydrochloride) : ____
Result :: 234 to 236 °C

Query :: Reported melting point, compound Nc1ccccc1CN1CCc2ccc(C(=O)CCCC3CCN(Cc4ccccc4Cl)CC3)cc2CC1 (as salt: hydrochloride) [Example 316, Trihydrochloride] : ____
Result :: 155 to 164 °C (dec.)

Query :: Reported melting point, compound CC(=O)N1CCC(CCC(=O)c2ccc3c(c2)CCN3c2ccncc2)CC1 : ____
Result :: 157 to 158 °C

Query :: Reported melting point, compound N#Cc1cccc(CN2CCc3ccc(C(=O)CCCC4CCN(Cc5ccccc5Cl)CC4)cc3CC2)c1 : ____
Result :: 121 to 122 °C

* * *

melting point listing for selected compounds.
Counter-ions that a name gives are not always drawn.

compound	melting point
CC(=O)N1CCC(CCC(=O)c2ccc3c4c2CCCC4CN3C(C)=O)CC1 (stereo not shown)	130 to 132 °C
CC(=O)N1CCC(CCC(=O)c2ccc3c(c2)CN(Cc2ccccc2)c2ccccc2CC3)CC1.Cl	155 to 158 °C
Cc1ccc(CN2CCC(CCC(=O)c3ccc4c(c3)CN(Cc3ccccc3)CCO4)CC2)cc1 (as salt: hydrochloride)	236 to 238 °C
COC(=O)c1ccccc1CN1CCC(CCCC(=O)c2ccc3c(c2)CCN(Cc2ccccc2C)CC3)CC1 (as salt: hydrochloride)	189 to 192 °C
Cc1ccc(CN2CCC(CCCC(=O)c3ccc4c(c3)CCN(Cc3ccccc3Cl)CC4)CC2)cc1 (as salt: hydrochloride)	174 to 178 °C
CCOC(=O)COc1cccc(CN2CCC(CCC(=O)c3ccc4c(c3)CN(Cc3ccc(F)cc3)CCO4)CC2)c1 (as salt: hydrochloride) [Example 103, Dihydrochloride]	200 to 203 °C

Attention now turns to another entry.
Query :: Reported melting point, compound O=C(CCC1CCN(Cc2ccccc2C(F)(F)F)CC1)c1ccc2c(c1)CN(Cc1ccccc1)CCO2 (as salt: hydrochloride) [Example 12, Dihydrochloride] : ____
Result :: 223 to 225 °C

* * *

Counter-ions that a name gives are not always drawn.
melting point listing for selected compounds.

> print(dat)
                                   compound  quantity.name         result
1  Cc1cccc(CN2CCC(CCC(=O)c3ccc4c(c3)CN(Cc3ccc(F)cc3)CCO4)CC2)c1 (as salt: hydrochloride) [Example 79, Dihydrochloride]  melting point  223 to 225 °C
2  O=C(CCC1CCN(Cc2ccccc2F)CC1)c1ccc2c(c1)CN(Cc1ccccc1)CCO2 (as salt: hydrochloride)  melting point  242 to 244 °C

Attention now turns to another entry.
Query :: Reported melting point, compound Cc1ccccc1CN1CCC(CCCC(=O)c2ccc3c(c2)CCNCC3)CC1 (as salt: hydrochloride) [Example 236, Dihydrochloride] : ____
Result :: 213 to 216 °C (dec.)

* * *

Structures can show the parent of a compound that is named as a salt.
melting point listing for selected compounds.

Check out these entries, answers already filled in.
> print(dat)
                                   compound  quantity.name                result
1  O=C(CCC1CCN(Cc2cccnc2)CC1)c1ccc2c(c1)CN(Cc1ccccc1)CCO2 (as salt: hydrochloride)  melting point         228 to 230 °C
2  Cc1cccc(CN2CCc3ccc(C(=O)CCCC4CCN(Cc5ccc(F)cc5)CC4)cc3CC2)c1 (as salt: hydrochloride)  melting point         209 to 212 °C
3  CC(=O)Nc1ccccc1CN1CCC(CCCC(=O)c2ccc3c(c2)CCN(Cc2ccccc2C)CC3)CC1 (as salt: hydrochloride)  melting point         172 to 178 °C
4  COc1ccc(CN2CCc3ccc(C(=O)CCC4CCN(Cc5ccc(Cl)c(Cl)c5)CC4)cc3CC2)cc1 (as salt: hydrochloride) [Example 96, Dihydrochloride]  melting point  220 to 223 °C (dec.)
5  O=C(CCC1CCNCC1)c1ccc2c(c1)CN(Cc1ccc(F)cc1)CCC2 (as salt: hydrochloride)  melting point         245 to 247 °C

Attention now turns to another entry.
Query :: Reported melting point, compound O=C(CCCCC1CCN(Cc2ccccc2)CC1)c1ccc2c(c1)CCN(Cc1ccccc1)CC2 (as salt: hydrochloride) [Example 209, Dihydrochloride] : ____
Result :: 208 to 210 °C

* * *

Counter-ions that a name gives are not always drawn.
melting point listing for selected compounds.

> print(dat)
                                   compound                result
1  Cc1ccccc1CN1CCc2ccc(C(=O)CCCC3CCN(Cc4ccc(F)cc4)CC3)cc2CC1.Cl.Cl         197 to 200 °C
2  CS(=O)(=O)Nc1cccc(CN2CCC(CCCC(=O)c3ccc4c(c3)CCN(Cc3ccccc3)CC4)CC2)c1 (as salt: hydrochloride)         158 to 164 °C
3  O=C(CCCC1CCN(Cc2ccc([N+](=O)[O-])cc2)CC1)c1ccc2c(c1)CCN(Cc1ccccc1)CC2 (as salt: hydrochloride)  242 to 247 °C (dec.)

Attention now turns to another entry.
Query :: Reported melting point, compound O=C(CCC1CCN(Cc2cc(F)cc(F)c2)CC1)c1ccc2c(c1)CN(Cc1ccccc1)CCO2 (as salt: hydrochloride) : ____
Result :: 241 to 243 °C

* * *

Structures can show the parent of a compound that is named as a salt.
melting point listing for selected compounds.

Check out these entries, answers already filled in.
> print(dat)
                                   compound  quantity.name                result
1  CCOC(=O)c1ccc(CN2CCC(CCC(=O)c3ccc4c(c3)CCN(Cc3ccc(F)cc3)CC4)CC2)cc1 (as salt: hydrochloride)  melting point  212 to 218 °C (dec.)
2  CC(=O)N1CCC(CCC(=O)c2ccc3c(c2)CN(Cc2ccc(F)cc2)CCO3)CC1.Cl  melting point         186 to 188 °C
3  O=C(CCC1CCN(Cc2cccc(F)c2)CC1)c1ccc2c(c1)CN(Cc1ccccc1)CCO2 (as salt: hydrochloride)  melting point         241 to 243 °C
4  CC(c1ccccc1)N1CCC(CCC(=O)c2ccc3c(c2)CN(Cc2ccc(F)cc2)CCO3)CC1 (centres unmarked) (as salt: hydrochloride)  melting point         235 to 237 °C
5  CC(C)(C)c1ccc(CN2CCC(CCC(=O)c3ccc4c(c3)CCN(Cc3ccc(F)cc3)CC4)CC2)cc1 (as salt: hydrochloride)  melting point  230 to 236 °C (dec.)
6  Cc1ccc(CN2CCC(CCC(=O)c3ccc4c(c3)CN(Cc3ccc(F)cc3)CCO4)CC2)cc1 (as salt: hydrochloride)  melting point         240 to 242 °C
7  Cl.Cl.O=C(CCCC1CCN(Cc2ccccc2)CC1)c1ccc2c(c1)CCN(Cc1ccccc1)CC2  melting point  220 to 222 °C (dec.)
8  Cc1ccc(CN2CCC(CCCC(=O)c3ccc4c(c3)CCN(Cc3cccc(Cl)c3)CC4)CC2)cc1 (as salt: hydrochloride) [Example 202, Dihydrochloride]  melting point         195 to 198 °C

Query :: Reported melting point, compound COc1ccc(CN2CCc3ccc(C(=O)CCC4CCN(Cc5ccc(F)cc5)CC4)cc3CC2)cc1 (as salt: hydrochloride) : ____
Result :: 218 to 226 °C (dec.)
